Parameter growth: see the listing below.
System: OVCAR-5 ovarian
protocol.notes: NCI-60 one-dose screen, 48 h (100 = growth as untreated, 0 = no growth, -100 = all killed)
condition.info: 10 µM unless noted
About 83,000 compounds went through this panel and 20% of them were active in at least one assay; those are over-represented in the sample as a whole.
Please state the figure in %; there is no need to write the unit.

Here is how some compounds turned out for growth.
compound	meas.value
COc1cc(C2CC(c3ccc(Nc4ccnc5cc(Cl)ccc45)cc3)=NN2c2ccccc2)cc(OC)c1OC (centres undefined)	86.4
Nc1cc2nc3ccccc3oc-2cc1=O	81.6
CN(C)CCOc1nc2c3ccncc3cc(-c3cccc(Cl)c3)c2c2cnccc12	58.8
COc1ccc(C2=Nn3c(nnc3-c3ccc(Cl)cc3N)SC2)cc1	99.5
CS(=O)(=O)Nc1cc(-c2cc3ncc(C#N)c(Nc4ccc(Oc5ccccc5)c(Cl)c4)c3s2)cnc1Cl	75.9

Lookup: GET /values?readout=growth&item= COc1ccc2[nH]c(C(=O)OCc3ccc4cccc(O)c4n3)cc2c1
Found: -66.6

Lookup: Please give the measured growth for this compound: C#CC[C@@H]1C[C@]2(C)[C@H]3CC=C4[C@H]5CC(C)(C)CC[C@]5(C(=O)NCCCCN)CC[C@@]4(C)[C@]3(C)CC[C@H]2C(C)(C)[C@H]1OC(C)=O
Found: 21.7

Lookup: GET /values?readout=growth&item= Cc1ccc(/C=C/C(=N/N=C(N)N)c2ccccc2)cc1
Found: 54.4

Lookup: Find the recorded growth belonging to CCCCNCC(O)c1cc2c(Cl)cc(Cl)cc2c2cc(C(F)(F)F)ccc12 (centres undefined) and report it.
Found: -81.2

---

Test system: NCI-H322M lung
protocol.notes: NCI-60 one-dose screen, 48 h (100 = growth as untreated, 0 = no growth, -100 = all killed)
condition.info: 10 µM unless noted
This is part of a sample that, as a whole, favours compounds with a hit. Of some 83,000 tested, about 20% had one in any assay.
Catalogue of growth values
Form entry: value (%) — number only.

Answered examples (2):
compound	growth (%)
CCCCCCCCCCCCCC[N+](C)(C)CCCCCCCCCCCCCC	98.7
Cc1ccc2oc(=O)cc(-c3nc4ccc([N+](=O)[O-])cc4[nH]3)c2c1	80.5

Lookup: Suppose we examine the compound CN1CCN(c2ccc(N3Cc4ccccc4OC4=C3C(=O)c3c(O)ccc(O)c3C4=O)cn2)CC1 ; what growth value has been reported?
Found: 4.57

Lookup: What value of growth has been reported for the following compound? FC(F)(F)c1ccc(/C=N/Nc2nnc3n2N=C(c2ccc(Cl)cc2)CS3)cc1
Found: 60.9

Lookup: If you can, please state the reported growth value of COc1cc(C2=NOC(c3cc(OC)c(OC)c(OC)c3)C2)ccc1OCCCCOc1cc2c(cc1OC)C(=O)N1CCC[C@H]1C=N2 (stereo partly specified) .
Found: -6.38

Lookup: What value of measured growth is listed for COc1cccc(/C=N/N=C(N)N)c1 ?
Found: 114

Lookup: Give the measured growth of COc1cccc2nc(Nc3cccc(NC(=O)c4cc(N5CCOCC5)cc(C(F)(F)F)c4)c3)ccc12 .
Found: 68.6

---

Each item that follows carries a reported growth.
Test system: NCI/ADR-RES ovarian
protocol.notes: NCI-60 one-dose screen, 48 h (100 = growth as untreated, 0 = no growth, -100 = all killed)
condition.info: 10 µM unless noted
This is part of a sample that, as a whole, favours compounds with a hit. Of some 83,000 tested, about 20% had one in any assay.
Numbers only here, please. The scale is %.

Example entries and their recorded answers appear below.
O=C(CS)OCC(COC(=O)CS)(COC(=O)CS)COC(=O)CS 74.3
COc1ccc2[nH]c(O)c(/C=c3/ccc4c(c3)N=C(c3ccc(F)cc3)N=4)c2c1 75.2
O=C1/C(=C\c2cccn2Cc2ccc(Cl)cc2)c2ccccc2N1c1c(Cl)cccc1Cl 78.3
COC(=O)c1cc2oc(/C=N/NC(=O)c3cc4oc(-c5cccc(C(F)(F)F)c5)cc4[nH]3)cc2n1Cc1ccccc1 97.9

Lookup: Look up growth: CCOc1cccc(/C=N/NC(=O)c2ccc(Nc3ccnc(C(F)(F)F)c3)cc2)c1O
Found: 49.3
